Entry source: patent US20240174663A1

subject-of-test: HCN2 (Homo sapiens)
assay-protocol: HCN2 assay using PatchXpress 7000A (PX protocol, Example 25)
Assay type: cell-based
details: room temperature
Structures can show the parent of a compound that is named as a salt.
measurement-type: IC50 (µM)

[
  {
    "compound": "N[C@@H](Cc1ncccn1)c1ncccc1-c1noc2ccccc12",
    "readout-units": "µM",
    "value-measured": 9
  }
]

(1) Cn1nc(-c2ccccc2[C@@H](N)Cc2cccc(C#N)n2)c2ccncc21
(2) N[C@@H](Cc1ccccn1)c1ncccc1-c1noc2ccccc12 [Example 6, hydrochloride]
(3) Cn1nc(-c2ccccc2[C@@H](N)Cc2ccccn2)c2cccnc21 [Example 1, hydrochloride]
Arrange these compounds by their IC50, starting with the largest number. # list labels per requested ordering 3, 1, 2

(a) NC(=O)c1cccc(C[C@H](N)c2ncccc2-c2noc3ccccc23)n1
(b) N[C@@H](Cc1ccccn1)c1ccncc1-c1noc2ccccc12 [Example 7, hydrochloride]
Which entry shows the lesser value of IC50 here, a or b ? Lab note: record the label of whichever item you select. a
(a: 6.4 µM, b: 13.8 µM)

(P) N[C@@H](Cc1ccccn1)c1cccnc1-c1noc2ccccc12 [Example 5, hydrochloride]
(Q) Cc1ccc(-c2noc3ccccc23)c([C@@H](N)Cc2ccccn2)n1 [Example 9, hydrochloride]
Which is greater in IC50, the first item P or the second item Q ? Lab note: record the label of whichever item you select. P
(P: 19 µM, Q: 3.2 µM)

----------
assay-protocol: Evaluation of CNS penetration: ivabradine in plasma, brain and auditory nerve
Assay type: in vivo
details: guinea pig, brain (somatosensory cortex) / plasma, other: injection; 30 min after injection; read-out: amount detected in brain, % of plasma level
measurement-type: Kp at 30 min
In your answer, state the number alone without any accompanying words.

May I ask what Kp at 30 min has been recorded for COc1cc2c(cc1OC)CC(=O)N(CCCN(C)C[C@H]1Cc3cc(OC)c(OC)cc31)CC2 ? 0.12

----------
subject-of-test: HCN2 (Homo sapiens, UniProt Q9UL51)
Sequence (Q9UL51 whole entry): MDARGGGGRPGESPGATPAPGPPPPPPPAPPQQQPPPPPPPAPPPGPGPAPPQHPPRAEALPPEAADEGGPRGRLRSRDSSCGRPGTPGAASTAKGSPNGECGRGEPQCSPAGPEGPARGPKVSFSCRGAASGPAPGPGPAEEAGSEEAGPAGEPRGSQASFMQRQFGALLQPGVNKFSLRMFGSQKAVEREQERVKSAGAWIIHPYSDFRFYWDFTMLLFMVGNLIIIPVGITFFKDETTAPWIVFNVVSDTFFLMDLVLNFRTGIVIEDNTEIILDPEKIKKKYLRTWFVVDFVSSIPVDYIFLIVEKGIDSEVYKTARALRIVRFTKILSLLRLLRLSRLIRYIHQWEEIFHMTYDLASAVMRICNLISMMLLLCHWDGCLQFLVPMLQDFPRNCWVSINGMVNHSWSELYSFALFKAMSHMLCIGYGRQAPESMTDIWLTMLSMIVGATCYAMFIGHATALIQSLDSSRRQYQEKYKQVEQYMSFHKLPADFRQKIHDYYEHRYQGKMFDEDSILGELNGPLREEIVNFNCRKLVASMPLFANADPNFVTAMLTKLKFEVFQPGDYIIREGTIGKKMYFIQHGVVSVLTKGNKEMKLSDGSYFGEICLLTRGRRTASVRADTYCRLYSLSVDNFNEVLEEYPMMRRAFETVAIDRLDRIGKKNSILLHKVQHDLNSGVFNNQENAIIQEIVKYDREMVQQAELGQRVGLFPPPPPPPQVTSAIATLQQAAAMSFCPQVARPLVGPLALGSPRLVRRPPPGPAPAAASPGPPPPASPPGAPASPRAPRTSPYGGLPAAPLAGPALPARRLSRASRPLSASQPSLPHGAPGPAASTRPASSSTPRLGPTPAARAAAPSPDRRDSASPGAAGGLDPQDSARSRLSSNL
assay-protocol: HCN2 assay using PatchXpress 7000A (PX protocol, Example 25)
Assay type: cell-based
details: room temperature
pIC50: −log10 of the molar value. Structures can show the parent of a compound that is named as a salt.
measurement-type: pIC50

(A) Cc1cccc(C[C@H](N)c2ccccc2-c2nn(C)c3cnccc23)n1 [Example 15, hydrochloride]
(B) CC(c1ccccn1)[C@H](N)c1ncccc1-c1noc2ccccc12 (single isomer, unassigned) [Example 12, hydrochloride]
(C) Cc1ccc(Br)nc1C[C@H](N)c1ncccc1-c1noc2ccccc12 [Example 22, hydrochloride]
(D) N[C@@H](Cc1ccccn1)c1ccccc1-c1noc2cnccc12
Order the entries above from lowest to highest pIC50. # list labels per requested ordering D, A, B, C
(D: 4.91, A: 5.11, B: 5.35, C: 5.80)

(a) CN(C)C(=O)c1cccc(C[C@H](N)c2ncccc2-c2noc3ccccc23)n1
(b) Cc1cccc(C[C@H](N)c2ncccc2-c2noc3ccccc23)n1 [Example 11, hydrochloride]
Which is greater in pIC50, the first item a or the second item b ? Lab note: record the label of whichever item you select. b
(b: 5.29, a: 4.95)

(P) Cn1nc(-c2ccccc2[C@@H](N)Cc2ccccn2)c2ccncc21 [Example 8, hydrochloride]
(Q) N#Cc1cccc(C[C@H](N)c2ncccc2-c2noc3ccccc23)n1 [Example 10, hydrochloride]
Which is greater in pIC50, the first item P or the second item Q ? Lab note: record the label of whichever item you select. Q
